Experiment: protein stability index of a GFP-peptide fusion (yeast GPS) (PSI 1-4); higher = more stable; sorted into four equal gates, so the index is relative within each strain
Conditions: pdr5∆
Dear colleague, classification is by protein stability index, with ranges listed here: bucket A (below 2), bucket B (2 to below 3), bucket C (3 or more)

ENTRY SEQUENCE | LABEL CLASS
NSLIEEINERSETQTKD [YCG1] | bucket C
MAHRVKVIPYSTFRLNL [RPO21] | bucket A
VLNGQKIVVVRAEALNI [RPL16B] | bucket C
FGAKSDEKKDSDSSKPA [YJL041W/NSP1] | bucket C
SESQLNSTLKKVESQET [YCS4] | bucket C
MEVLGIEAGRAALYKEV [RPO21] | bucket B
MLSAHNIIESIANFSRA [YJR042W/NUP85] | bucket B
FQVHERLAPLIKEENDM [ARP7] | bucket C
SVISGNLSLYEATAASH [CSN12] | bucket B
YSAAKKIPDTYTANTSA [YAR002W/NUP60] | bucket B
PSHEKLKESYSQKHNGR [CDC53] | bucket C
NFYRPLLRSVLVLLELV [YML103C/NUP188] | bucket A
LRADKLYEKLKQEIMMS [ISW2] | bucket A
IIDAKTRNEQTTIQTEK [MCD1] | bucket C
GTVSRVNRLLSVIPLKG [RRP4] | bucket A
HQQQQQQQQQQQQQQQQ [SNF5] | bucket B
VECTISILRKSSPEEPF [SNF12] | bucket A
VTQKDICILGILDLCQL [CSI1] | bucket B
AEKKVVRLTSRQRGRIA [RPL17A] | bucket A
FTGDFLRRVEERFTKSK [FAS1] | bucket C
HTSIRETLENGETRMKM [SMC2] | bucket B
NNDADKGRSYAYFMVGA [RIP1] | bucket C
ALYPQEARLRNLTYSSG [RPB2] | bucket B
TSDPVMHKQLAYILAAQ [RPN1] | bucket B
SVSFKVFLLLQAYFSRL [BRR2] | bucket A
KILRDNIQGITKPAIRR [HHF1] | bucket C
SELFDEWFEQNNSEQDQ [ISW2] | bucket B
EFSPRLHNIWSNGLLSI [YML103C/NUP188] | bucket A
KKPRKPRQTKKAKAQAQ [PGD1] | bucket C
NFRILKSFTNDKIPLNY [SRB5] | bucket B
KILAGLHDTQIEGKLHM [RPN10] | bucket C
DYGEEIKSGVAKLESLL [MTW1] | bucket C
IREIDVAGGKKALAIFV [RPS7A] | bucket A
LSLTTVPCDRIEKSRLF [SNF6] | bucket B
ELNSSEDILEDMNSNLQ [SMC1] | bucket C
IGKDTFVTRKSRKRAKK [PRP8] | bucket B
LTGTVVSTKMHRTIVIR [RPS11A] | bucket B
HHDGKLWNLNAYRTDVI [PRP8] | bucket C
EDGLLEGLDELPKIIQL [SOH1] | bucket C
ELQIFKTANSSSDAFEK [YIL149C/MLP2] | bucket B
ASLTAARTAANSIYCPT [RPN6] | bucket B
PYCPIASITGTGSNDRC [YMR129W/POM152] | bucket A
HPLHELIIQYPPNNARR [ISW2] | bucket B
SDSSSEDEVKVEGPKFT [YLR335W/NUP2] | bucket C
ERLKVPILVTLVSDSEI [POP6] | bucket A
EKLAVSALEQAIIYQRG [YGL100W/SEH1] | bucket B
DLSISALLGDKIYNFGE [RPN9] | bucket C
KQQDAEELFTQLFHSMS [UBP6] | bucket C
SDVLRFLQRVRVWEYRQ [RPL15A] | bucket A
DLEEVKRFQVLYPCYFD [SEC65] | bucket B
ENNYKKRLLGTAFKSSP [RPS23A] | bucket B
LDGVSYLHQNWVLHRDL [SSN3] | bucket B
ALLKLSVKLKQKRLEAG [DIS3] | bucket A
AELDDCRGVSENVILGQ [RPO21] | bucket C
